protocol_notes: Evaluation of light fastness-2 (OD value of printed portion after 400 hours xenon fadeometer)
Assay type: physicochemical
assay_setup: ink prepared as in Example 1 from the salt named in the row; OD value of printed portion after 400 hours xenon fadeometer
measurement_type: (A)-2 light fastness-2

chemical_string=CCCCc1c(N=Nc2cc(C(=O)O)ccc2C(=O)O)c(O)n(CCNC(=O)c2cc(C(=O)O)c(C(=O)NCCn3c(O)c(N=Nc4cc(C(=O)O)ccc4C(=O)O)c(CCCC)c(C#N)c3=O)cc2C(=O)O)c(=O)c1C#N measurement_type="(A)-2 light fastness-2" result=⊚⊚
chemical_string=Cc1c(N=Nc2cc(C(=O)O)ccc2C(=O)O)c(O)n(CCCCCCNc2nc(NCCCCCCn3c(O)c(N=Nc4cc(C(=O)O)ccc4C(=O)O)c(C)c(C#N)c3=O)nc(NCCCCCCn3c(O)c(N=Nc4cc(C(=O)O)ccc4C(=O)O)c(C)c(C#N)c3=O)n2)c(=O)c1C#N measurement_type="(A)-2 light fastness-2" result=◯
chemical_string=Cc1c(N=Nc2cc(C(=O)O)ccc2C(=O)O)c(O)n(Cc2cc(S(=O)(=O)O)cc(S(=O)(=O)O)c2)c(=O)c1C#N measurement_type="(A)-2 light fastness-2" result=◯
chemical_string=C[N+](C)(C)C.C[N+](C)(C)C.C[N+](C)(C)C.C[N+](C)(C)C.Cc1c(N=Nc2cc(C(=O)[O-])ccc2C(=O)[O-])c(O)n(CCNc2nc(Cl)nc(NCCn3c(O)c(N=Nc4cc(C(=O)[O-])ccc4C(=O)[O-])c(C)c(C#N)c3=O)n2)c(=O)c1C#N measurement_type="(A)-2 light fastness-2" result=∘
